Recorded values, source patent US20040147495A1.

For each entry below, report its Step through test Error No value.
tested on: Sprague Dawley rats; experiment: Alzheimer's disease model (amyloid β + ibotenic acid): step-through test; assay type: in vivo, rat; conditions: 18 mg/kg/day by gastric tube for two months, wrong responses in 5 min, * p < 0.05

For CCOC(=O)O[C@@H]1CC[C@@]2(C)[C@H](CC[C@@H]3[C@@H]2CC[C@]2(C)[C@@H]4[C@H](C[C@@H]32)O[C@]2(CC[C@H](C)CO2)[C@H]4C)C1 [episarsasapogenin cathylate] , what is its reported Step through test Error No?
1.36 ± 0.92*

For CCOC(=O)O[C@H]1CC[C@@]2(C)[C@H](CC[C@@H]3[C@@H]2CC[C@]2(C)[C@@H]4[C@H](C[C@@H]32)O[C@]2(CC[C@H](C)CO2)[C@H]4C)C1 [sarsasapogenin cathylate] , what is its reported Step through test Error No?
1.36 ± 1.03*

For C[C@@H]1CC[C@@]2(OC1)O[C@H]1C[C@H]3[C@@H]4CC=C5C[C@@H](O)CC[C@]5(C)[C@H]4CC[C@]3(C)[C@H]1[C@@H]2C [diosgenin, reference compound] , what is its reported Step through test Error No?
3.75 ± 1.49

For CCOC(=O)CCC(=O)OC1CCC2(C)C(CCC3C2CCC2(C)C3CC3OC4(CCC(C)CO4)C(C)C32)C1 (stereo not drawn) [episarsasapogenin ethylsuccinate, reference compound] , what is its reported Step through test Error No?
3.73 ± 1.35

For C[C@H]1CC[C@@]2(OC1)O[C@H]1C[C@H]3[C@@H]4CC[C@@H]5C[C@H](O)CC[C@]5(C)[C@H]4CC[C@]3(C)[C@H]1[C@@H]2C [episarsasapogenin] , what is its reported Step through test Error No?
1.50 ± 1.18*

For C[C@@H]1CC[C@@]2(OC1)O[C@H]1C[C@H]3[C@@H]4CC[C@@H]5C[C@H](O)CC[C@]5(C)[C@H]4CC[C@]3(C)[C@H]1[C@@H]2C [epismilagenin] , what is its reported Step through test Error No?
1.73 ± 0.91*
